Ref: ChEMBL document CHEMBL1122153

Test system: Micrococcus luteus
Assay: Minimum inhibitory concentration (MIC) required to inhibit the growth of Sarcina lutea PCI 1001 by using nutrient agar as growth medium
Type: functional
propertyMeasured: MIC (µg/mL)

Use these answered entries as a reference point.
compound	recordedMeasurement
CC[C@H]1OC(=O)C[C@@H](O)[C@H](C)[C@@H](OC2OC(C)C(OC3CC(C)(O)C(O)C(C)O3)C(N(C)C)C2O)[C@@H](CCN)C[C@@H](C)C(=O)/C=C/C(C)=C/C1COC1OC(C)C(O)C(OC)C1OC (stereo not given in full)	6.25
CC[C@@H]1OC(=O)C[C@H](O)[C@@H](C)[C@H](OC2OC(C)C(O)C(N(C)C)C2O)[C@H](CCNCC[C@H]2C[C@@H](C)C(=O)/C=C/C(C)=C/C(COC3OC(C)C(O)C(OC)C3OC)[C@@H](CC)OC(=O)C[C@@H](O)[C@H](C)[C@H]2OC2OC(C)C(O)C(N(C)C)C2O)C[C@H](C)C(=O)/C=C/C(C)=C/C1COC1OC(C)C(O)C(OC)C1OC (stereo not given in full)	0.78
CCCC(=O)OC1C(C)OC(OC2C(C)OC(O[C@@H]3[C@H](CCNCC[C@H]4C[C@@H](C)[C@@H](O)/C=C/C=C/C[C@@H](C)OC(=O)C[C@@H](O)[C@H](OC)[C@H]4OC4OC(C)C(OC5CC(C)(O)C(OC(=O)CCC)C(C)O5)C(N(C)C)C4O)C[C@H](C)[C@H](O)/C=C/C=C/C[C@H](C)OC(=O)C[C@H](O)[C@H]3OC)C(O)C2N(C)C)CC1(C)O (stereo not given in full)	12.5
CO[C@@H]1[C@@H](OC2OC(C)C(OC3CC(C)(O)C(OC(=O)CC(C)C)C(C)O3)C(N(C)C)C2O)[C@@H](CCNCC[C@@H]2C[C@H](C)[C@H](O)/C=C/C=C/C[C@H](C)OC(=O)C[C@H](OC(C)=O)[C@@H](OC)[C@@H]2OC2OC(C)C(OC3CC(C)(O)C(OC(=O)CC(C)C)C(C)O3)C(N(C)C)C2O)C[C@@H](C)[C@@H](O)/C=C/C=C/C[C@@H](C)OC(=O)C[C@H]1OC(C)=O (stereo not given in full)	25

[1] CCCC(=O)OC1C(C)OC(OC2C(C)OC(O[C@H]3[C@@H](CCN)C[C@@H](C)[C@@H](O)/C=C/C=C/C[C@@H](C)OC(=O)C[C@@H](O)[C@@H]3OC)C(O)C2N(C)C)CC1(C)O (stereo not given in full)
[2] CC[C@H]1C[C@@H](C)[C@@H](O)/C=C/C=C/C[C@@H](C)OC(=O)C[C@@H](OC(C)=O)[C@H](OC)[C@H]1OC1OC(C)C(OC2CC(C)(O)C(OC(=O)CC(C)C)C(C)O2)C(N(C)C)C1O (stereo not given in full)
Qu. Field: lower recorded MIC (choose 1 or 2 ) Pick one and reply with its label.
Ans. 2
(2: 1.56 µg/mL, 1: 25 µg/mL)
